Overview of reported composite z-score across a group of compounds:
# System: Sam68 (KHDRBS1)
# Test method notes: Sam68 small-molecule binders, primary screen, biochemical, small-molecule microarray, 635 nm fluorescence (AID 1125);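 note: score merges 667 nm channel intensity with signal to noise over triplicate slides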
# Applied conditions: small-molecule microarray binding, higher = more signal
Measured attribute: composite z-score

[[record]]
compound = "O=C(CS)NCCCCCCNC(=O)[C@@H]1C[C@@H]2C(=O)NCC(=O)N2[C@@H]1c1cccc(OCCO)c1"
value_reported = 0.318

[[record]]
compound = "O=C1NC(=O)C2C1C=CC(C(O)c1cccs1)N2Nc1ccc(Cl)cc1Cl (stereo not given)"
value_reported = -0.374

[[record]]
compound = "COCCOC(=O)N1C(=O)[C@@]2(c3cc(C#CCC(C(=O)OC)C(=O)OC)ccc31)[C@H](C(=O)N1CCN(c3ncccn3)CC1)[C@H]1C(=O)O[C@H](c3ccccc3)[C@H](c3ccccc3)N1[C@@H]2c1ccccc1OCCO"
value_reported = 1.29

[[record]]
compound = "C=C[C@H](CO[Si](CC)(CC)CC)N(Cc1ccc(OC(C)=O)c(OC)c1)S(=O)(=O)c1ccc(Br)cc1"
value_reported = 1.29

[[record]]
compound = "COc1cc2c(cc1OC)CN(C(=O)[C@@H]1[C@H]3C(=O)O[C@H](c4ccccc4)[C@H](c4ccccc4)N3[C@H](c3ccccc3OCCO)[C@@]13C(=O)Nc1ccc(C#CCCO)cc13)CC2"
value_reported = 1.29

[[record]]
compound = "C=CCOC(=O)[C@H]1[C@@H]2C(=O)O[C@@H](c3ccccc3)[C@@H](c3ccccc3)N2[C@@H](c2ccc(OCCOC(=O)[C@H]3C[C@H]4C(=O)N[C@@H](CCCCNC(C)=O)C(=O)N4[C@H]3c3cccc(OCCO)c3)cc2)[C@]12C(=O)Nc1ccccc12"
value_reported = 1.25

[[record]]
compound = "NC(=O)NCC#Cc1ccc2c(c1)[C@]1(C(=O)N2)[C@H](c2ccccc2OCCO)N2[C@H](c3ccccc3)[C@H](c3ccccc3)OC(=O)[C@H]2[C@@H]1C(=O)Nc1nc2ccccc2s1"
value_reported = 1.07

[[record]]
compound = "COc1ccc(C(O)C2C=CC3C(=O)N(Cc4ccccc4)C(=O)C3N2n2cnnc2)cc1OCc1ccccc1 (stereo not given)"
value_reported = 0.953

[[record]]
compound = "C[C@H]1C2[C@H](Cc3ccccc3)NC(=O)[C@]23C(=O)N[C@H](Cc2ccccc2)C(=O)N2CCC[C@H]2C(=O)NC/C=C\\C/C=C/C3[C@@H]2O[C@]12C (stereo not given in full)"
value_reported = 0.194

[[record]]
compound = "CO[C@H]1O[C@H](CO)[C@@H](OC(=O)Nc2cccc(F)c2)[C@H](OC(=O)Nc2ccccc2)[C@@H]1OC(=O)Nc1ccccc1"
value_reported = 1.3

[[record]]
compound = "CO[C@H]1O[C@H](CO)[C@@H](OC(=O)Nc2ccccc2)[C@H](OC(=O)Nc2ccccc2)[C@@H]1OC(=O)Nc1ccccc1"
value_reported = 1.3

[[record]]
compound = "C[N+](C)(C)CCCC[C@@H]1NC(=O)[C@H]2C[C@@H](C(=O)NCCCCCCNC(=O)CS)[C@@H](c3cccc(OCCO)c3)N2C1=O"
value_reported = -0.365

[[record]]
compound = "CN1C(=O)C2C=CC(C(O)C3CC=CCC3)N(N(c3ccccc3)c3ccccc3)C2C1=O (stereo not given)"
value_reported = -1.25

[[record]]
compound = "COCCOC(=O)N1C(=O)[C@@]2(c3cc(C#CCC(C(=O)OC)C(=O)OC)ccc31)[C@H](c1ccccc1OCCO)N1[C@H](c3ccccc3)[C@H](c3ccccc3)OC(=O)[C@H]1[C@@H]2C(=O)N1CCN(c2ncccn2)CC1"
value_reported = 1.31

[[record]]
compound = "C=CCOC(=O)[C@@H]1[C@H]2C(=O)O[C@H](c3ccccc3)[C@H](c3ccccc3)N2[C@H](c2ccc(OCCOC(=O)[C@H]3C[C@H]4C(=O)N5CCC[C@H]5C(=O)N4[C@H]3c3ccc(O)cc3)cc2)[C@@]12C(=O)Nc1ccc(I)cc12"
value_reported = 1.3

[[record]]
compound = "O=C(c1ccccc1)N1C(=O)[C@@]2(Cc3ccccc31)N=C(c1ccc(OCCCO)cc1)O[C@H]2c1ccccc1"
value_reported = 1.31

[[record]]
compound = "COc1ccc([Si](C)(C)[C@@H]2[C@@H](CCO)O[C@]3(C(=O)N(Cc4ccc(N(C=O)c5ccccc5)cc4)c4ccccc43)[C@H]2C)cc1"
value_reported = 0.495

[[record]]
compound = "COc1ccc(CCNC(=O)[C@@]2(Sc3ccc(C)cc3)CC(=O)N(C(C)C)[C@@H]2c2ccc(CO)cc2I)cc1"
value_reported = 0.0063

[[record]]
compound = "COc1ccc(CCNC(=O)[C@@]2(Sc3ccc(C)cc3)CC(=O)N(C3Cc4ccccc4C3)[C@@H]2c2ccc(CO)cc2I)cc1"
value_reported = 0.608

[[record]]
compound = "NCCCCCCNC(=O)[C@@H]1C[C@@H]2C(=O)NCC(=O)N2[C@@H]1c1ccc(O)cc1"
value_reported = 1.28

[[record]]
compound = "C=CC[C@@]12N=C(c3ccc(OCCCO)cc3)O[C@@H]1c1ccccc1N(C)C2=O"
value_reported = 1.22

[[record]]
compound = "CCOC(=O)C1=CC[C@@H](c2ccccc2)N(S(=O)(=O)c2ccc(C)cc2)[C@H]1c1ccccc1C"
value_reported = 0.841

[[record]]
compound = "C=CC1(C(=O)OC)CC=C(C(=O)OC)CC1 (stereo not given)"
value_reported = 0.82

[[record]]
compound = "CCC[C@@H]1C[C@@]1(CCC)[C@@H](NS(=O)(=O)c1cccc2cccnc12)c1ccc(Cl)cc1"
value_reported = 0.403

[[record]]
compound = "O=C1C2C=CC(C(O)Cc3ccccc3)N(n3cnnc3)C2C(=O)N1Cc1ccccc1 (stereo not given)"
value_reported = 0.646


Values were extracted from PubChem BioAssay.
